# PROTOCOL_TEXT: HIF-2a reporter inhibitors, primary screen, luminescence, 786-0 RCC cells (AID 624352)
# CONDITION_SUMMARY: 786-0 RCC cells HIF-2a reporter, luciferase luminescence, overnight; at 18.8 µM; stronger effect = higher value
Hit rate of the full screen: of about 360,000 compounds, about 2,600 (0.72%) were called active. This excerpt belongs to a sample that is enriched for actives.
PROPERTY_LABEL: inhibition

[
  {
    "COMPOUND": "COC1C(O)C(C)OC(OC2CCC3(C=O)C(CCC4C3CCC3(C)C(C5=CC(=O)OC5)CCC43O)C2)C1O (stereo unspecified)",
    "PROPERTY_LABEL": "inhibition",
    "REPORTED_MEASUREMENT": "82.4% (active)"
  },
  {
    "COMPOUND": "O=P(OC1=CCCCC1)(c1ccccc1)c1ccccc1",
    "PROPERTY_LABEL": "inhibition",
    "REPORTED_MEASUREMENT": "12.4% (inactive)"
  },
  {
    "COMPOUND": "Cc1nc2ccccn2c1P(=S)(N1CCCCC1)N1CCCCC1",
    "PROPERTY_LABEL": "inhibition",
    "REPORTED_MEASUREMENT": "18.1% (inactive)"
  },
  {
    "COMPOUND": "COc1cc(OC)cc(C2(C#N)CCN(C)CC2)c1",
    "PROPERTY_LABEL": "inhibition",
    "REPORTED_MEASUREMENT": "13.2% (inactive)"
  },
  {
    "COMPOUND": "CN1CCN(Cc2ccccc2C(F)(F)F)CC1",
    "PROPERTY_LABEL": "inhibition",
    "REPORTED_MEASUREMENT": "9.38% (inactive)"
  },
  {
    "COMPOUND": "COC(=O)C[C@H]1CC[C@H]2NC[C@@H](O)COC[C@@H]2O1",
    "PROPERTY_LABEL": "inhibition",
    "REPORTED_MEASUREMENT": "10.3% (inactive)"
  },
  {
    "COMPOUND": "COc1ccc(CCn2c(O)c(C=NCCCn3ccnc3)c(=O)[nH]c2=O)cc1OC",
    "PROPERTY_LABEL": "inhibition",
    "REPORTED_MEASUREMENT": "11.2% (inactive)"
  },
  {
    "COMPOUND": "Cc1ccc(P(=S)(c2ccc(C)o2)N2CCOCC2)o1",
    "PROPERTY_LABEL": "inhibition",
    "REPORTED_MEASUREMENT": "-0.609% (inactive)"
  },
  {
    "COMPOUND": "Cc1nn(-c2ccccc2)c(C)c1NC(=O)COC(=O)Cc1ccccc1",
    "PROPERTY_LABEL": "inhibition",
    "REPORTED_MEASUREMENT": "8.24% (inactive)"
  },
  {
    "COMPOUND": "CCCCCCCCCCCCn1ccc(=N)cc1",
    "PROPERTY_LABEL": "inhibition",
    "REPORTED_MEASUREMENT": "51.2% (active)"
  },
  {
    "COMPOUND": "COC(=O)C1=C(c2cc3ccccc3s2)C[C@@H]2CC[C@H]1N2C(=O)NC(C)C",
    "PROPERTY_LABEL": "inhibition",
    "REPORTED_MEASUREMENT": "6.19% (inactive)"
  }
]

---

# PROTOCOL_TEXT: HIF-2a reporter inhibitors, primary screen, luminescence, 786-0 RCC cells (AID 624352)
# CONDITION_SUMMARY: 786-0 RCC cells HIF-2a reporter, luciferase luminescence, overnight; at 18.8 µM; stronger effect = higher value
The whole screen tested about 360,000 compounds, of which about 2,600 (0.72%) were called active. Only a selection was taken, and actives are over-represented in it overall.

[
  {
    "MOLECULE": "CC(C)c1c(CN(C)C(C)Cc2ccccc2)n(C)n(-c2ccccc2)c1=O (centres undefined)",
    "UNITS_OF_MEASURE": "%",
    "inhibition": 17.5
  },
  {
    "MOLECULE": "CN(C)CC1Oc2ccccc2OC1(O)c1ccccc1 (centres undefined)",
    "UNITS_OF_MEASURE": "%",
    "inhibition": 55.3
  },
  {
    "MOLECULE": "CCOC(=O)[C@]12Cc3ccccc3[C@H]1N(C1CCCCC1)C(=O)c1cc(OC)ccc12",
    "UNITS_OF_MEASURE": "%",
    "inhibition": 81.9
  },
  {
    "MOLECULE": "CC=C(C)C(=O)OC1CCN2CC=C(COC(=O)C(O)(C(C)OC)C(C)(C)O)C12 (centres undefined)",
    "UNITS_OF_MEASURE": "%",
    "inhibition": 3.51
  },
  {
    "MOLECULE": "CC1([N+](=O)[O-])COP(=O)(Nc2ccc(F)cc2)OC1 (centres undefined)",
    "UNITS_OF_MEASURE": "%",
    "inhibition": 17.4
  },
  {
    "MOLECULE": "CCOC(=O)[C@]12Cc3cc(OC)ccc3[C@H]1N(C(C)C)C(=O)c1ccccc12",
    "UNITS_OF_MEASURE": "%",
    "inhibition": 24.5
  },
  {
    "MOLECULE": "Cc1ccc(C(C)C)c(OCC(=O)N2CCN(CC(=O)N3CCOCC3)CC2)c1",
    "UNITS_OF_MEASURE": "%",
    "inhibition": -3.94
  },
  {
    "MOLECULE": "c1ccc2sc(C3CCCNC3)nc2c1 (centres undefined)",
    "UNITS_OF_MEASURE": "%",
    "inhibition": -94.5
  },
  {
    "MOLECULE": "COC(=O)CN(CCCl)P1(=O)OCCCN1CCCl (centres undefined)",
    "UNITS_OF_MEASURE": "%",
    "inhibition": 6.36
  }
]

Sourced from PubChem BioAssay AID624352
